target: GRK2 (Homo sapiens, UniProt P25098); construct: purchased SignalChem A14-10G; experiment: ADPGlo GRK2 Inhibition Assay (Example 8); format: biochemical; settings: ADPGlo GRK2 enzyme assay; read-out: A: Enzymatic GRK2: IC50 (nM) (Example 8)
Sequence (P25098 whole entry): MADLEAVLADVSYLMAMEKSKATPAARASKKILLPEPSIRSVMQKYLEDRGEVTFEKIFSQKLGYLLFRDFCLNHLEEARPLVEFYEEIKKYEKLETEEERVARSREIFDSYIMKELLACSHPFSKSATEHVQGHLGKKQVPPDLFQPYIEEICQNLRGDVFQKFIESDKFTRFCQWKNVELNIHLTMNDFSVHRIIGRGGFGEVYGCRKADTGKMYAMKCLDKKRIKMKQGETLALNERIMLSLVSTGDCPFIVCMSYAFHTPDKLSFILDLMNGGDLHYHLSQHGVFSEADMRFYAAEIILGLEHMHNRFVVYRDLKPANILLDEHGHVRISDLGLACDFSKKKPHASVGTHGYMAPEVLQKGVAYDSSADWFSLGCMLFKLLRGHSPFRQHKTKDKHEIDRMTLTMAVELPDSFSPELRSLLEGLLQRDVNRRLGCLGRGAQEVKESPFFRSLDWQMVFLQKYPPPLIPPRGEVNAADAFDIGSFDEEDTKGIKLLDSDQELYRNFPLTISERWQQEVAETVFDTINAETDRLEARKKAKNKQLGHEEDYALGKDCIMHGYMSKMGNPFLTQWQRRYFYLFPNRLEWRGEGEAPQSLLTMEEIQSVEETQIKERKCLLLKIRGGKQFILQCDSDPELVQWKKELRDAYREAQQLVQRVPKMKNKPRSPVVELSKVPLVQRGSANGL
Parameter: log10 IC50. Scope: all listed entries.
The common logarithm of IC50 in nM is what is listed.

Check out these entries, answers already filled in.
molecule	log10 IC50
CCc1ccc(CNC(=O)c2cccc(NCc3nnc(-c4ccncn4)n3C)c2)nc1	2.43
Cc1ccc(CNC(=O)c2cccc(NCc3nnc(-c4ccncn4)n3C)c2)c(N2CCOCC2)c1	2.61
COc1cc(F)ccc1CNC(=O)c1cccc(NCc2nnc(-c3ccncn3)n2C)c1	1.39

-- ask Input Cn1c(CNc2cccc(C(=O)NCc3cccc4c3NC(=O)CO4)c2)nnc1-c1ccncn1 , output reported log10 IC50.
-- reply 0.99

-- ask Input COc1cccc2c1CCC2(CO)NC(=O)c1cccc(NCc2cnc(-c3ccncn3)n2C)c1 (stereo not drawn) , output reported log10 IC50.
-- reply 2.13

-- ask Input CN1Cc2ccccc2C(NC(=O)c2cccc(NCc3nnc(-c4ccncn4)n3C)c2)C1 (stereo not drawn) , output reported log10 IC50.
-- reply 1.66

-- ask Input Cn1c(CNc2cccc(C(=O)NCc3cccnc3Cl)c2)nnc1-c1ccncn1 , output reported log10 IC50.
-- reply 1.44

-- ask Input Cn1c(CNc2cccc(C(=O)NCc3ccccc3CO)c2)nnc1-c1ccncn1 , output reported log10 IC50.
-- reply 1.26

-- ask Input Cc1cccc2ncc(CNC(=O)c3cccc(NCc4nnc(-c5ccncc5F)n4C)c3)n12 , output reported log10 IC50.
-- reply 0.59

###

Molecular target: GRK2 (Homo sapiens)
Construct: purchased SignalChem A14-10G
Assay: ADPGlo GRK2 Inhibition Assay (Example 8)
Assay type: biochemical
Conditions: ADPGlo GRK2 enzyme assay; read-out: A: Enzymatic GRK2: IC50 (nM) (Example 8)
Experimental: HTS was performed using 1 μM compound. Compounds were dissolved in 100% DMSO, serially diluted tree-fold from 100 μM concentration to 46 nM and transferred (50 nL) into assay ready plate. Materials: GRK2 was purchased from SignalChem (Cat #A14-10G, Lot #X^645-3). […] HTS protocol: Take 384 well plate with 50 nL of compound in columns 3-22/DMSO solution 1-2,23-24. […] Read plate in Luminescent modeon BMG PheraStar FSX (gain=3600). Data Analysis: Data were analyzed in GraphPad Prism 8.0.2. […]
observedProperty: log10 of IC50 (log10 of the value in nM)
The common logarithm of IC50 in nM is what is listed.

Check out these entries, answers already filled in.
compound	dataValue
Cc1ccc(C(C)NC(=O)c2cccc(NCc3nnc(-c4ccncn4)n3C)c2)nc1 (centres unmarked)	1.87
CC(Cc1nccn1C)NC(=O)c1cccc(NCc2nnc(-c3ccncn3)n2C)c1 (centres unmarked)	2.86

-- ask Input CC(O)C(NC(=O)c1cccc(NCc2nnc(-c3ccncn3)n2C)c1)c1ccccc1F (centres unmarked) , output reported log10 of IC50.
-- reply 2.32

-- ask Input COc1ccccc1C(CO)NC(=O)c1cccc(NCc2nnc(-c3ccncn3)n2C)c1 (centres unmarked) , output reported log10 of IC50.
-- reply 1.66

-- ask Input Cc1ccc(C#N)cc1CNC(=O)c1ccnc(NCc2nnc(-c3ccncn3)n2C)c1 , output reported log10 of IC50.
-- reply 0.85
